Origin of the recorded values: paper PMC3889630

Format: in vivo, human
Experimental setup: human, plasma, oral, 50 mg, Cmax, range of values, DTG; healthy subjects
Property: Cmax

INSERT INTO results (smiles_entry, property, result) VALUES
  ('C[C@@H]1CCO[C@H]2Cn3cc(C(=O)NCc4ccc(F)cc4F)c(=O)c(O)c3C(=O)N12', 'Cmax', '820 to 3200 ng/mL');
